test system: Zymoseptoria tritici (SEPTTR-184); test: Cyp51 dsRNA tile (fragment) foliar application bioassay (Example 6); assay type: in vivo; details: 1 day protectant; calculated from disease control
# reported ED50 (ppm) SEPTTR-184 1DP; entries follow
READOUT: ED50 (ppm) SEPTTR-184 1DP

>>> reported_value("MgCyp51-T11: dsRNA tile of Zymoseptoria tritici Cyp51, 172 bp, location 775-946 (nucleic acid, listed as Zymoseptoria tritici) TCCGAGACATACATGTCGATCATTCAGAAGAGACGAGAGTCCAAAACGGGCGAACATGAGGAAGACATGATCCACAACTTGATGCAGTGCAAATACAAGGACGGCAATGCCATTCCCGACAAGGAGATTGCTCATATGATGATTGCGCTGCTCATGGCCGGCCAGCACTCTT")
"<3.125 ppm"
>>> reported_value("MgCyp51-T13: dsRNA tile of Zymoseptoria tritici Cyp51, 119 bp, location 1517-1635 (nucleic acid, listed as Zymoseptoria tritici, long dsRNA tile, purified, chemistry not given here) ACAATGTGGATGGCAGCGACAACGTGGTGGGTACGGATTACAGCAGTTTGTTCAGCCGGCCGCTGTCGCCGGCAGTAGTAAAGTGGGAGAGGAGGGAGGAGAAGGAGGAGAAGAACTGA")
"<3.125 ppm"
>>> reported_value("YFP: non-target dsRNA control (YFP, yellow fluorescent protein coding region) (nucleic acid, double-stranded RNA; synthesized partial coding region) TGTAGAAATCCTTCAGCTCGGGGCCGTACTTGGCGAAGCACTGGGCGCCGTAGGTCAGGGTGGTCACCAGGGTGCTCCAGGGCACGGGCACATCGCCGGTGGTGCAGATGAACTGGGCATCCACCTTGCCCACGCTGGCATCGCCGTAGCCCTTGCCGCGGATGCTGAAGGTGTGGCCATCCACATTGCCCTCCATCTCCACCACGTAGGGGATCTTGCCGTGGAACAGCAGGGCGCCGCTGGAGCCCAT")
">200 ppm"
>>> reported_value("MgCyp51-T8: dsRNA tile of Zymoseptoria tritici Cyp51, 242 bp, location 1151-1392 (nucleic acid, listed as Zymoseptoria tritici) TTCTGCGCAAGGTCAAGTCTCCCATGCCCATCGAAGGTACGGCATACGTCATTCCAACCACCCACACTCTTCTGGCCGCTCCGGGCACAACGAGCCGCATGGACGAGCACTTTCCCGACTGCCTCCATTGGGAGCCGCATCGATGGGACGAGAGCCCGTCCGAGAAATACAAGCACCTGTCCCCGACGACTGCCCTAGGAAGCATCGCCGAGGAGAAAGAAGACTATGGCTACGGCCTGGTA")
"5.208 ppm"
>>> reported_value("MgCyp51-T5: dsRNA tile of Zymoseptoria tritici Cyp51, 133 bp, location 1316-1448 (nucleic acid, listed as Zymoseptoria tritici) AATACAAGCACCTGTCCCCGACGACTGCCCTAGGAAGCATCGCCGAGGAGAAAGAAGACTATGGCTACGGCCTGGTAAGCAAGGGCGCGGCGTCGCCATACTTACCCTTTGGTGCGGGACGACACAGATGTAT")
"<3.125 ppm"

Origin of the recorded values: patent US20180320179A1
